# IC50 listing for each entry below
- target-system: purified human FAS (Homo sapiens)
- Construct: Human FAS was purified from cultured ZR-75-1 human breast cancer cells; endogenous in cells; host or cells: ZR-75-1 human breast cancer cells (ATCC); enzyme purified by PEG precipitation and Mono Q chromatography
- Sequence (P49327 whole entry): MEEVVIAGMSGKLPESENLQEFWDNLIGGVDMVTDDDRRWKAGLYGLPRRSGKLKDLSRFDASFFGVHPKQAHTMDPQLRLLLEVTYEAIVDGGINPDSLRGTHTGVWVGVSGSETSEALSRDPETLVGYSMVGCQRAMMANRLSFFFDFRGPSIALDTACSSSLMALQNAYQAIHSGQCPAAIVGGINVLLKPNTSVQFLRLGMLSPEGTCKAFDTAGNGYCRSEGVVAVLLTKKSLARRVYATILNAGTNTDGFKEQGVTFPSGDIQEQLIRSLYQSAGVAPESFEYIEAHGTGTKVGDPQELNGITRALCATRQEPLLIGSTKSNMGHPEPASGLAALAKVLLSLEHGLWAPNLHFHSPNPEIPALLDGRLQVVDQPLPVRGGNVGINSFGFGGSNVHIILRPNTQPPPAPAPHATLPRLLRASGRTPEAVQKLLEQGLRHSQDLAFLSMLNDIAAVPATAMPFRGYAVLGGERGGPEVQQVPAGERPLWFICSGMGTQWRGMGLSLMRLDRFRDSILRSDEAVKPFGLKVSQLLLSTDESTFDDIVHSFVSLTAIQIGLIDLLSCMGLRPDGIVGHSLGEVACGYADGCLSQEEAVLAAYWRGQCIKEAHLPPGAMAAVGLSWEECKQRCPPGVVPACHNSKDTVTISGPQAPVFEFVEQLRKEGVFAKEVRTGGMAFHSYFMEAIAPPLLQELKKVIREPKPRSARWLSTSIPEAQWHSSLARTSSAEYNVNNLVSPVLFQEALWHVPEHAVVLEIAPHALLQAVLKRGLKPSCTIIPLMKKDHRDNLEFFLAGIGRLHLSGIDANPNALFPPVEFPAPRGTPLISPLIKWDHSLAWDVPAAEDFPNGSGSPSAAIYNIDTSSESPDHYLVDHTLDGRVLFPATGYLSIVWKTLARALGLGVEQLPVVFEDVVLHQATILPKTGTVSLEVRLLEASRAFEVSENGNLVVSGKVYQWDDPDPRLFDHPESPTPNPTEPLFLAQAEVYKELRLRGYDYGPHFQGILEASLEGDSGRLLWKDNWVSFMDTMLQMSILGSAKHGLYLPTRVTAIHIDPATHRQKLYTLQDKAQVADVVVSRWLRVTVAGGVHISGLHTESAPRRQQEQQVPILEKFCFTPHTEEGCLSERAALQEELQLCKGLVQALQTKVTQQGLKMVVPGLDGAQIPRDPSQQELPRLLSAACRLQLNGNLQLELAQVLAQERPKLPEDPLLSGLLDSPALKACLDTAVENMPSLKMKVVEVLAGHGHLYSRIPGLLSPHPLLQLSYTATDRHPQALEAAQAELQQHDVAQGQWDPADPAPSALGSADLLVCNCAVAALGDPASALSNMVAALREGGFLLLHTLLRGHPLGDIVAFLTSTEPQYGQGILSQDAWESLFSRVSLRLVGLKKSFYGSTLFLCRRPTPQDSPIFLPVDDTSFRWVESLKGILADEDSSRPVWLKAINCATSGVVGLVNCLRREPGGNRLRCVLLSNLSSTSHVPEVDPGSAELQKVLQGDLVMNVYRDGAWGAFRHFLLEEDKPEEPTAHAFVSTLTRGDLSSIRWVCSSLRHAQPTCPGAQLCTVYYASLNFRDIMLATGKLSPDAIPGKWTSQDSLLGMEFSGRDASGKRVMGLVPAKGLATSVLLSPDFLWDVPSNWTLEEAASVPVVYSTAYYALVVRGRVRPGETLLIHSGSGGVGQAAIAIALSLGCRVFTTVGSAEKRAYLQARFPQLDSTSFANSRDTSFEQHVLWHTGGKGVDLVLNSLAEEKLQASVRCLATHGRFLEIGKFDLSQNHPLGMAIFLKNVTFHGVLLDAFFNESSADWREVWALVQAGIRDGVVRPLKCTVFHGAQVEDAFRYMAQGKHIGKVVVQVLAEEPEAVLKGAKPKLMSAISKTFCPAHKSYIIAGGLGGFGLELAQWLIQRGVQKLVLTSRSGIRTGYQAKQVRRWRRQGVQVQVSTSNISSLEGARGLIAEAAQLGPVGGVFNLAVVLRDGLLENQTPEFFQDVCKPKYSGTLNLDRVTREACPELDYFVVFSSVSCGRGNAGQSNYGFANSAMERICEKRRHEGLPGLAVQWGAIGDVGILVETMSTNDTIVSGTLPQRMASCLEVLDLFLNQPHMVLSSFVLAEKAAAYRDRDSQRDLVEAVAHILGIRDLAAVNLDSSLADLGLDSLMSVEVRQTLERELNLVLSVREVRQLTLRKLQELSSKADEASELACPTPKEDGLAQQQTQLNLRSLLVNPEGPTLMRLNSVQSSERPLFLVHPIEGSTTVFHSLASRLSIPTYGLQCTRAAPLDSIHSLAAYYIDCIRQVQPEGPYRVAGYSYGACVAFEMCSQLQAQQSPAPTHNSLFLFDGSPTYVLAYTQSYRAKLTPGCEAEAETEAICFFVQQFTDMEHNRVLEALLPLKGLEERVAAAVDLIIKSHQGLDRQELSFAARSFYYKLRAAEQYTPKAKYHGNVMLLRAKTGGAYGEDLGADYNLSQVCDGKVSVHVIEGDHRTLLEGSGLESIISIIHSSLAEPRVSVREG
- assay-details: FAS enzymatic activity (malonyl-CoA dependent NADPH oxidation)
- Type: biochemical
- measurement-setup: (SB)
property-label: IC50

{"compound": "C=CCC1(CC=C)C(=O)SC(C)(CCCCCCCC)C1=O (racemic) [Compound 4]", "target-system": "purified human FAS (Homo sapiens)", "measured": "884 µM"}
{"compound": "C=CCC1(CC=C)C(=O)SC(C)(CCCCCCCCCC)C1=O (stereo not drawn) [Compound 15]", "target-system": "purified human FAS (Homo sapiens)", "measured": "804 µM"}
{"compound": "CCCCCCCCCCC1(C)SC(=O)C(C)(C)C1=O (stereo not drawn) [Compound 12]", "target-system": "purified human FAS (Homo sapiens)", "measured": "854 µM"}

###

# log10(IC50) listing for each entry below
- Test system: MCF-7 human breast cancer cells
- assay-details: XTT cytotoxicity assay (M)
- Assay type: cell-based
- measurement-setup: MCF7
property-label: log10(IC50) (log10 of the value in µg/mL)

{"compound": "C=CCC1(CC=C)C(=O)SC(C)(CCCCCCCC)C1=O (racemic) [Compound 4]", "measured": 1.61}
{"compound": "CCCCCCCCCCC1(C)SC(=O)C(C)(C)C1=O (centres unmarked) [Compound 12]", "measured": 1.37}
{"compound": "C=CCC1(CC=C)C(=O)SC(C)(CCCCCCCCCC)C1=O (centres unmarked) [Compound 15]", "measured": 1.86}
{"compound": "CCCCCCC1(C)SC(=O)C(C)(C)C1=O (centres unmarked) [Compound 9]", "measured": 0.72}
{"compound": "CCCCCCCCC1(C)SC(=O)C(C)(C)C1=O (centres unmarked) [Compound 6]", "measured": 1.36}
